ASSAY_REMARKS: STM_H9_CystineISnorm_perc: Stemina devTOX quickPredict H9 human embryonic stem cell (hESC)-based Assay for Cystine (CYSS) Metabolite Biomarker, Normalized (AID 2283713)
Activity calls are given as the source filed them. The calls were made as follows: active = hit-call score of the fitted dose curve at least 0.9, where 1 is the maximum; inactive = score below 0.9.
Your answer must be one of the following: YES (active), NO (inactive)

CC1=C(/C=C/C(C)=C/C=C/C(C)=C/C(=O)O)C(C)(C)CCC1	YES
Cc1cc(CCN2CCN(c3nsc4ccccc34)CC2)cc2c1NC(=O)CC2(C)C	YES
O=C(O)Cc1cc(I)c(Oc2cc(I)c(O)c(I)c2)c(I)c1	NO
CN1CCN(c2ccccc2/C=C2\SCCN(c3ccc(Cl)c(Cl)c3)C2=O)CC1	YES

Let's switch to this molecule now.
Asked: Lab log entry: COc1ccc([N+](=O)[O-])cc1N — outcome as called in the assay?
Given back: NO

Hey, just so you know, these numbers are from PubChem BioAssay (EPA / NIEHS).
